// data source = ChEMBL document CHEMBL4028856

Target: GATA4/NKX2-5 (Mus musculus, UniProt P42582+Q08369)
Sequence (Q08369 whole entry): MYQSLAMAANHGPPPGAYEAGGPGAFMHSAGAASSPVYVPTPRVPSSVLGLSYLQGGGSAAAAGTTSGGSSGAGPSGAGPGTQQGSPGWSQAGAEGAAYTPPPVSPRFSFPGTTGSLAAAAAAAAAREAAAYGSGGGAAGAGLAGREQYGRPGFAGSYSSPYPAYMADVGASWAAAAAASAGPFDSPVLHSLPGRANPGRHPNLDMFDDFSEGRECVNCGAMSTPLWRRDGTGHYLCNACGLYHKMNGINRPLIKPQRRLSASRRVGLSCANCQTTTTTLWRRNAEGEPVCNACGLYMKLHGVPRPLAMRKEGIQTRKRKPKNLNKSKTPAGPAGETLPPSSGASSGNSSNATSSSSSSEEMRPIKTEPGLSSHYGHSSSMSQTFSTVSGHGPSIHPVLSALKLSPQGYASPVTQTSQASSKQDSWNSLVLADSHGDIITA
Sequence (P42582 whole entry): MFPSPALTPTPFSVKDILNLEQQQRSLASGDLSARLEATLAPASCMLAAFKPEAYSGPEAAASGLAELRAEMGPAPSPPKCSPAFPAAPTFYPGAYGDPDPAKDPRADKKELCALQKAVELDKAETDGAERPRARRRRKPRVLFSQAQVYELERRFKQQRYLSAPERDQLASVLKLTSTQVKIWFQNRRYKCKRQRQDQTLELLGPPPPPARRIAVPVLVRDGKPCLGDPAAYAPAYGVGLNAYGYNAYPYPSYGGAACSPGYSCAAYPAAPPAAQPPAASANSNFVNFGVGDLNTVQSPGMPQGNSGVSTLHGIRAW
Experiment: Inhibition of mouse GATA4/NKX2-5 transcriptional synergy expressed in African green monkey COS-1 cells measured after 30 hrs by dual luciferase reporter gene assay
Assay type: cell-based
pIC50: −log10 of the molar value.
Recorded pIC50 for the following molecules
readoutKind: pIC50

* CN(C)c1ccc(/C=N/n2c(S)nnc2-c2ccncc2)cc1 | 5.15
* Cc1onc(-c2ccccc2)c1C(=O)Nc1ccc(OC(C)C)cc1 | 4.89
* Cc1onc(-c2ccccc2)c1C(=O)Nc1ccc(-c2nnc3n2CCCCC3)cc1 | 4.70
* CCC(C)c1ccc(NC(=O)c2c(-c3ccccc3)noc2C)cc1 (stereo unspecified) | 4.49

* * *

Recorded pIC50 for the following compounds
Biological target: GATA4/NKX2-5 (Mus musculus, UniProt P42582+Q08369)
Assay: Inhibition of mouse GATA4/NKX2-5 transcriptional synergy expressed in African green monkey COS-1 cells measured after 30 hrs by dual luciferase reporter gene assay
pIC50: −log10 of the molar value.
readoutKind: pIC50

- CC(C)(C)c1ccc(/C=N/n2c(S)nnc2-c2ccncc2)cc1: 5.15
- CC(C)COC(=O)c1ccc(NC(=O)c2cccs2)cc1: 5.05
- COc1ccc(/C=N/n2c(S)nnc2-c2ccccc2)cc1C: 4.96
- CCOc1ccc(/C=C2\SC(=O)N(CC)C2=O)cc1: 5.30

* * *

Biological target: GATA4/NKX2-5 (Mus musculus, UniProt P42582+Q08369)
Test: Inhibition of mouse GATA4/NKX2-5 transcriptional synergy expressed in African green monkey COS-1 cells measured after 30 hrs by dual luciferase reporter gene assay
pIC50: −log10 of the molar value.
readoutKind: pIC50

* COc1ccc(/C=N/n2c(SC)nnc2-c2ccccc2)cc1C | 4.62
* CCOc1ccccc1/C=N/n1c(S)nnc1-c1ccccc1 | 5.10
* COc1ccc(/C=N/n2c(S)nnc2C2CCCCC2)cc1OCc1ccccc1 | 5.00
* CCN1C(=O)S/C(=C\c2ccc(N3CCCC3)c(F)c2)C1=O | 5.10
* CCN(CC)c1ccc(/C=N/n2c(S)nnc2-c2ccc(OC)cc2)cc1 | 4.72
* CCN(CC)c1ccc(/C=N/n2c(S)nnc2C2CCCCC2)cc1 | 5.22
* CC(C)COC(=O)c1ccc(NC(=O)CCC(=O)O)cc1 | 4.43
* c1ccc(-c2nonc2-c2ccccc2)cc1 | 4.30

* * *

Target: GATA4/NKX2-5 (Mus musculus, UniProt P42582+Q08369)
Experiment: Inhibition of mouse GATA4/NKX2-5 transcriptional synergy expressed in African green monkey COS-1 cells measured after 30 hrs by dual luciferase reporter gene assay
Recorded IC50 for the following molecules
readoutKind: IC50

• CCOc1ccc(/C=C2\SC(=O)N(CC)C2=O)cc1OCC = 26 µM
• O=c1cc(-c2ccc(O)c(O)c2)oc2cc(O)cc(O)c12 = 22 µM
• C=CCc1cccc(/C=N/n2c(S)nnc2-c2ccccc2)c1O = 20 µM
• CCN(CC)c1ccc(NC(=O)c2c(-c3ccccc3)noc2C)cc1 = 3 µM
• CC(C)CNC(=O)c1ccc(NC(=O)C2CC2)cc1 = 23 µM
• CCC(C)c1ccc(NC(=O)c2c(-c3ccccc3Cl)noc2C)cc1 (stereo unspecified) = 20 µM

* * *

Target: GATA4/NKX2-5 (Mus musculus, UniProt P42582+Q08369)
Test: Inhibition of mouse GATA4/NKX2-5 transcriptional synergy expressed in African green monkey COS-1 cells measured after 30 hrs by dual luciferase reporter gene assay
Binary label based on IC50 with cut-off 20 µM: below gives true, not below gives false.

* Cc1cccc(/C=N/n2c(S)nnc2-c2ccccc2)c1 | false
* CC(C)CNC(=O)c1ccc(NC(=O)C2CCCCC2)cc1 | false
* Cc1onc(-c2ccccc2)c1C(=O)Nc1ccc2c(c1)CCC2 | true
* Cc1nc(-c2ccc(NC(=O)c3c(-c4ccccc4)noc3C)cc2)cs1 | false
* Cc1onc(-c2ccccc2)c1C(=O)Nc1ccc(N2CCCCC2)cc1 | false
* CC(C)CNC(=O)c1ccc(NC(=O)c2cccs2)cc1 | false
* O=C(O)/C(=C/c1ccccc1)c1c(F)c(F)c(F)c(F)c1F | false
* Cc1onc(-c2ccccc2)c1C(=O)Nc1ccc(OC(F)(F)F)cc1 | true
* CC(C)CCN1C(=O)S/C(=C\c2ccc(N(C)C)cc2)C1=O | true
* Cc1onc(-c2ccccc2Cl)c1C(=O)Nc1ccc(N2CCOCC2)cc1 | false
* Cc1onc(-c2ccccc2)c1C(=O)Nc1ccc(C#N)c(Cl)c1 | true
* Cc1onc(-c2ccccc2)c1C(=O)Nc1ccc(Sc2nccn2C)cc1 | false
* CCOc1ccc(/C=N/n2c(SC)nnc2-c2ccccc2)cc1OCC | false
* CC(C)CNC(=O)c1ccc(NC(=O)C(F)(F)F)cc1 | false
* CC(C)(C)c1ccc(/C=N/n2c(S)nnc2-c2cccnc2)cc1 | false
* COc1cccc(/C=N/n2c(S)nnc2-c2ccccc2)c1 | false
* Cc1ccc(C(=O)Nc2ccc(C(=O)OCC(C)C)cc2)cc1C | false
* Cc1onc(-c2ccccc2)c1C(=O)Nc1ccc(-n2cnnn2)cc1 | false
* Cc1onc(-c2ccccc2)c1C(=O)Nc1ccc(Oc2ccccc2)cc1 | false
* Cc1onc(-c2ccccc2)c1C(=O)Nc1ccc(N2CCOCC2)cc1 | false
* Cc1onc(-c2ccccc2)c1C(=O)Nc1cccc(S(=O)(=O)N2CCCC2)c1 | false
* CC(C)c1ccc(/C=N/n2c(S)nnc2-c2cccnc2)cc1 | false
* CC(C)CNC(=O)c1ccc(NC(=O)C2CCCO2)cc1 (stereo unspecified) | false
* O=c1cc(-c2ccc(O)cc2)oc2cc(O)cc(O)c12 | false
* CC(C)COC(=O)c1ccc(NC(=O)COc2ccccc2Cl)cc1 | false
* CCc1ccc(/C=C2\SC(=O)NC2=O)cc1 | false
* Sc1nnc(-c2ccccc2)n1/N=C/c1ccc(OC2CCCC2)cc1 | false
* CCCCOc1ccc(/C=N/n2c(S)nnc2CC)cc1 | false
* CCN(CC)S(=O)(=O)c1cc(NC(=O)c2c(-c3ccccc3)noc2C)ccc1C | false
* CCOc1ccc(/C=N/n2c(S)nnc2C2CCCCC2)cc1 | true
* CC(C)COC(=O)c1ccc(NC(=O)c2ccncc2)cc1 | true
* COc1cccc(/C=N/n2c(SC)nnc2-c2ccccc2)c1OC | false
* CCN(CC)c1ccc(/C=N/n2c(S)nnc2-c2ccccc2)c(OC)c1 | false
* Cc1onc(-c2ccccc2Cl)c1C(=O)Nc1ccc(C(C)(C)C)cc1 | false
* CCC(CC)C(=O)Nc1ccc(C(=O)NCC(C)C)cc1 | false
* CCNc1ccc(NC(=O)c2c(-c3ccccc3)noc2CO)cc1 | false
* CCCOC(=O)c1ccc(NC(=O)c2c(-c3ccccc3)noc2C)cc1 | false
* Cc1onc(-c2ccccc2)c1C(=O)Nc1cccc(S(=O)(=O)NC2=NC=CC2)c1 | false
* COc1cccc(C(=O)Nc2ccc(C(=O)NCC(C)C)cc2)c1 | false
* Cc1onc(-c2ccccc2)c1C(=O)Nc1ccc(C(C)(C)C)cc1 | true
* Sc1nnc(-c2ccccc2)n1/N=C/c1cccc(Oc2ccccc2)c1 | true
